# Test system: HS 578T breast
# MEASUREMENT_NOTES: NCI-60 one-dose screen, 48 h (100 = growth as untreated, 0 = no growth, -100 = all killed)
# ASSAY_CONDITIONS: 10 µM unless noted
This is part of a sample that, as a whole, favours compounds with a hit. Of some 83,000 tested, about 20% had one in any assay.
QUANTITY_MEASURED: growth (%)
Number only, in %; omit the unit.

Examples from the recorded data:
1) N#C/C(=C1/C(=O)Nc2ccccc21)c1nnc(NC(=O)c2ccc(-n3c(=O)[nH]c4ccccc4c3=O)cc2)s1 :: 55.6
2) NC(=O)c1ccc(-c2ccc3ncnc(N4CCc5cc(F)c(Cl)cc54)c3c2)cn1 :: 55.4
3) CC1CCc2c(sc3nc(SCC(=O)c4cccc([N+](=O)[O-])c4)n(-c4ccccc4)c(=O)c23)C1 (stereo not given) :: 94.7
4) O=C(CSc1nc2ccccc2c(=O)[nH]1)Nc1ccccc1C(=O)O :: 79.3
5) O=C(CSc1nnc(-c2ccc(-c3nc4ccc(Cl)cc4[nH]3)cc2)o1)Nc1ccc(Cl)cc1 :: 14.1

Hello, I am looking for reported growth with HS 578T breast for O=C(Nc1nc2ccccc2s1)Nc1ccccc1Cl . Could you help?
22.7

Form field: growth recorded for Nc1nn2c(-c3cc4cc(Br)ccc4oc3=O)ccnc2c1N=Nc1ccc(Br)cc1 with HS 578T breast (enter value)
28.3

What is its growth for HS 578T breast? Entry: O=C(N/N=C/c1ccc(-c2cccc([N+](=O)[O-])c2)s1)c1[nH]c2ccc(Br)cc2c1-c1ccccc1
82.4

Please tell me: growth of O=C(Nc1nc2ccc([N+](=O)[O-])cc2s1)Nc1ccccc1F , system HS 578T breast?
0.171

Requested read-out growth, target or system HS 578T breast, entry Cc1ccc2nc(SCc3ccccc3F)n(-c3ccccc3)c(=O)c2c1
96.3

====

# System: HT29 colon
# MEASUREMENT_NOTES: NCI-60 one-dose screen, 48 h (100 = growth as untreated, 0 = no growth, -100 = all killed)
# ASSAY_CONDITIONS: 10 µM unless noted
# Method: Growth inhibition of the HT29 human tumor cell line is measured as a screen for anti-cancer activity. Cells are grown in 96 well plates and exposed to the test compound for 48 hours. Compounds are tested at a single concentration, which is 10^-5 M for most compounds. The reported endpoint is percent growth (GI% or GIPRCNT), where numbers from 0 - 100% represent growth inhibition, and numbers from -100% - 0 represent cell death. For example, a value of 40 represents 60% growth inhibition. […]
This is part of a sample that, as a whole, favours compounds with a hit. Of some 83,000 tested, about 20% had one in any assay.
growth reference
# value in %; strip the unit string

1. COc1cc(CNC(=O)C[C@H](C)CCC=C(C)C)ccc1OCc1cn(-c2ccc(Br)cc2)nn1 :: 94.4
2. CN1C(=O)/C(=C\C(=O)c2cc3ccccc3oc2=O)c2ccccc21 :: 93.4
3. Cc1ccc(O)cc1Nc1nc(SCCN2CCOCC2)nc2c1cnn2CC(Cl)c1ccc(Br)cc1 (stereo not given) :: -30.2
4. COc1cc(/C=C/C(=O)c2ccc(S(=O)(=O)NCCNc3nc(N(C)C)nc(N4CCOCC4)n3)cc2)cc(OC)c1OC :: -100

Please find the next compound below.
Which growth is reported with HT29 colon for this entry: CS(=O)(=O)c1ccc(-n2nc(C(=O)NCc3ccccc3)cc2-c2ccc(Cl)cc2)cc1 ?
74

====

# Test system: NCI-H522 lung
# MEASUREMENT_NOTES: NCI-60 one-dose screen, 48 h (100 = growth as untreated, 0 = no growth, -100 = all killed)
# ASSAY_CONDITIONS: 10 µM unless noted
This is part of a sample that, as a whole, favours compounds with a hit. Of some 83,000 tested, about 20% had one in any assay.
Entries and their measured growth follow.
State just the number; it will be interpreted in %.

Observe how each entry below is paired with its result.
1) COc1ccc(N=Nc2c(N)nn3c(N)c(C#N)c(-c4ccccc4)nc23)cc1 :: -4.5
2) Cc1ccc(N=Nc2c(N)nn3c(-c4cc5ccccc5oc4=O)ccnc23)cc1 :: 64.9
3) COc1cc(/C=N/NC(=O)c2ccc(OCc3nc4ccc(C)cc4[nH]3)cc2)cc(OC)c1OC :: 28.1
4) COc1ccc(/C=C/C(=O)c2ccc(S(=O)(=O)NCCNc3nc(N(C)C)nc(N4CCOCC4)n3)cc2)cc1 :: 64.7
5) Clc1ccc2c(NCCNC34CC5CC(CC(C5)C3)C4)ccnc2c1 :: -76.7
6) COc1ccc(Nc2ncnc3sc4c(c23)CCN(Cc2ccccc2)C4)cc1 :: 63.2
7) O=C(c1ccc(O)cc1)C1[C@H](c2ccc(Cl)cc2)[C@@H](c2ccccc2)NC12C(=O)Nc1ccc(Br)cc12 (stereo not given in full) :: -20.8
8) O=Cc1cncc(-c2ccc3ncnc(N4CCc5cc(F)c(Cl)cc54)c3c2)c1 :: 59

growth lookup needed for C#CCCCNCCNc1ccnc2cc(Cl)ccc12 , thanks.
41.1

// lookup growth for Cc1nc2sccn2c1-c1nnc(SCc2ccccc2)o1
78.2

// lookup growth for O=[N+]([O-])c1cccc(-c2nnc3c(/C=C/c4ccc(F)cc4)nc4ccccc4n23)c1
81

# query: growth of entry N#Cc1c(-c2ccc(F)cc2)nc(SCc2ccc(F)cc2)nc1N1CCNCC1
-70.4

Fill in the blank: the reported growth of CC[C@]12C=CCN3CC[C@]4(C(=C(C(=O)OC)C1)Nc1cc(OC)c([C@@H]5[C@H]6O[C@H]6[C@@]6(CC)CC(C(=O)OC)=C7Nc8cc(OC)ccc8[C@@]78CCN5[C@@H]68)cc14)[C@@H]32 is ____.
64.8

Please give the measured growth for this compound: COc1cc(C2CC(c3ccc(Cl)cc3)=Nc3c(N)nc(N)nc3N2)ccc1Oc1nc(Nc2ccc(F)cc2)nc(N(C)C)n1 (stereo not given)
38.9

Query: growth; subject: Nc1cc2ccccc2c(=O)n1NC(=O)c1ccc(Br)cc1
96.7

Which measured growth value corresponds to Cc1cccc(-c2ccccc2Oc2ccc3nnc(Cl)n3n2)c1 ?
102

====

# Tested on: MDA-MB-435 melanoma
# MEASUREMENT_NOTES: NCI-60 one-dose screen, 48 h
# ASSAY_CONDITIONS: 10 µM unless noted
The panel holds about 83,000 compounds, 20% with a hit somewhere; the sample as a whole holds those more often. Calls of active or inactive are those of the source. Rule for the calls: active = growth percent below 10; inactive = the rest.
Tick one outcome: 1 (yes) (active), 0 (no) (inactive)

1) COc1cc(CNC(=O)C[C@H](C)CCC=C(C)C)ccc1OCc1cn(-c2cccc(C(F)(F)F)c2)nn1 :: 0 (no)

Called result for COc1sc(/C=N/NC(=O)c2[nH]c3ccc(Br)cc3c2-c2ccccc2)cc1Br
1 (yes)

// return assay outcome for Cc1ccc(C(=O)Nc2cccc(C(=O)NC(=S)Nc3ccc(S(N)(=O)=O)cc3)c2)cc1
0 (no)

How did this test come out for Cc1cc(C(NC(=O)CCCCCNc2cccc3c2C(=O)N(C2CCC(=O)CC2=O)C3=O)c2cccc(N(C)C)c2)c(O)c2ncccc12 (centres undefined) ?
0 (no)

====

# Test system: NCI/ADR-RES ovarian
# MEASUREMENT_NOTES: NCI-60 one-dose screen, 48 h
# ASSAY_CONDITIONS: 10 µM unless noted
Compounds without any hit were thinned out: in the full panel of roughly 83,000, 20% have a hit. The source made the active and inactive calls. How the source made its calls: active means growth percent below 10; inactive means the rest.
Result category, one only: active, inactive

Past entries and their recorded results:
1. COc1ccc(N=Nc2c(N)nn3c(-c4cc5ccccc5oc4=O)ccnc23)cc1 :: inactive
2. COc1cc(/C=C/C(=O)c2ccc(S(=O)(=O)NCCNc3nc(N(C)C)nc(N4CCOCC4)n3)cc2)cc(OC)c1OC :: active

For O=[N+]([O-])c1cccc(-c2nnc3c(/C=C/c4ccc(F)cc4)nc4ccccc4n23)c1 , which call appears in the assay record?
inactive

Answer briefly: the call reported for Cc1nn(-c2ccccc2)c2nc(C)n(CC(=O)N/N=C/c3cccc([N+](=O)[O-])c3)c(=O)c12 in this assay.
inactive

====

# System: HT29 colon
# MEASUREMENT_NOTES: NCI-60 one-dose screen, 48 h
# ASSAY_CONDITIONS: 10 µM unless noted
The panel holds about 83,000 compounds, 20% with a hit somewhere; the sample as a whole holds those more often. The source made the active and inactive calls. The calls were made as follows: active = growth percent below 10; inactive = the rest.
Returns: one label drawn from active, inactive

1. Cc1ccc(C(=O)Nc2cc(-n3cnc(F)c3)cc(C(F)(F)F)c2)cc1C#Cc1cnc2cccnn12 :: inactive
2. COc1ccc2[nH]c(=O)c(CSc3ccccc3Nc3nccc(-c4ccc(C(F)(F)F)cc4)n3)cc2c1 :: active
3. O=C(NN1C(=O)/C(=C/C=C/c2ccc([N+](=O)[O-])o2)SC1=S)c1ccncc1 :: active
4. N#Cc1cc(-c2ccnc(Nc3ccc(N4CCN(C5COC5)CC4)cc3)n2)ccc1N1CCCC1 :: inactive

In this assay, the call recorded for CCCn1c(NC(=O)c2cccc(C(N)=O)c2)nc2ccc(CN3CCCCC3)cc21 was what?
inactive
